Species on record: Mus musculus
protocolSummary: Binding affinity to prostaglandin receptor in Charles River CD-1 mouse ovary assessed as increase in cAMP accumulation using [8-14C]adenine at 25 ug/ml after 30 mins relative to control
Type: tissue-based
conditionsUsed: Female gonad
readout: fold change (FC)

compound	fold change (FC)
CCCCC[C@H](O)CC[C@H]1CCC(=O)[C@@H]1CCCCCCC(=O)O	26
CCCCCC(O)CCC1SCC(=O)N1CCCCCCC(=O)O (mixture of isomers)	8
CCCCC[C@H](O)/C=C/[C@H]1[C@H](O)CC(=O)[C@@H]1CCCCCCC(=O)O	62

I. O=C(O)CCCCCCN1C(=O)CS(=O)(=O)C1CCC(O)COc1ccc(F)cc1 (mixture of isomers)
II. CCCCCC(O)CCCC(CCCCCCC(=O)O)S(C)(=O)=O (stereo unspecified)
**Q:** fold change (FC) comparison. Which is larger, I or II ? Provide the label of your selected option as the answer.
**A:** II

###

Species: Mus musculus
protocolSummary: Binding affinity to prostaglandin receptor in Charles River CD-1 mouse ovary assessed as increase in cAMP accumulation using [8-14C]adenine at 1 ug/ml after 30 mins relative to control
Assay type: tissue-based
conditionsUsed: Female gonad
readout: fold change (FC)

compound	fold change (FC)
CCCCCC(O)CCC1SCC(=O)N1CCCCCCC(=O)O (mixture of isomers)	1.4

A. CCCCCCCCC1CCC(=O)N1CCCCCCC(=O)O (racemic)
B. CCCCC[C@H](O)CC[C@H]1CCC(=O)[C@@H]1CCCCCCC(=O)O
**Q:** Would you let me know which has the greater fold change (FC) value, A or B ? Write the label of whichever entry you select.
**A:** B
(B: 10, A: 0.7)

###

protocolSummary: Retardation factor, Rf of the compound
Format: physicochemical
readout: Rf

compound	Rf
CCCCCC(O)CCC1CCC(=O)N1CCCCCCC(=O)O (mixture of isomers)	0.15

P. CCCCCC(O)CCC1SCC(=O)N1CCCCCCC(=O)O (mixture of isomers)
Q. CCCCCCCCc1c[nH]c(=O)n1CCCCCCC(=O)O
R. CCCCCCCCC1C(=O)NC(=O)N1CCCCCCC(=O)O (racemic)
**Q:** Sort (3 compounds) by Rf: min first. API: response body holds the labels in the requested order.
**A:** P, R, Q

###

Species on record: Mus musculus
protocolSummary: Binding affinity to prostaglandin receptor in Charles River CD-1 mouse ovary assessed as increase in cAMP accumulation using [8-14C]adenine at 100 ug/ml after 30 mins relative to control
Assay type: tissue-based
conditionsUsed: Female gonad
readout: fold change (FC)

Below, 3 compounds whose answers are already recorded.
compound	fold change (FC)
CCCCCC(O)CCCC(CCCCCCC(=O)O)C(C)=O (stereo not given)	23
CCCCCCCCC1CCC(=O)N1CCCCCCC(=O)O (racemic)	13
CCCCCC(O)CCC1N(CCCCCCC(=O)O)C(=O)CS1(=O)=O (mixture of isomers)	37

1. CCCCCC(O)CCC1CCC(=O)N1CCCCCCC(=O)O (mixture of isomers)
2. CCCCC[C@H](O)/C=C/[C@H]1[C@H](O)CC(=O)[C@@H]1CCCCCCC(=O)O
3. CCCCCCCCc1c[nH]c(=O)n1CCCCCCC(=O)O
4. CCCCCCCCC1C(=O)NC(=O)N1CCCCCCC(=O)O (racemic)
5. CCCCCC(O)CCCC(CCCCCCC(=O)O)S(C)(=O)=O (stereo not given)
**Q:** Rank the 5 compounds: largest fold change (FC) first, smallest last. Respond with an ordered listing of the labels, as requested.
**A:** 2, 5, 1, 3, 4

A. CCCCCC(O)CCC1SCC(=O)N1CCCCCCC(=O)O (mixture of isomers)
B. O=C(O)CCCCCCN1C(=O)CS(=O)(=O)C1CCC(O)COc1ccc(F)cc1 (mixture of isomers)
**Q:** Endpoint returns whichever of A and B has the numerically higher fold change (FC). Provide the label of your selected option as the answer.
**A:** A
(A: 25, B: 7)

###

Species on record: Mus musculus
protocolSummary: Binding affinity to prostaglandin receptor in Charles River CD-1 mouse ovary assessed as increase in cAMP accumulation using [8-14C]adenine at 1 ug/ml after 30 mins relative to control
Format: tissue-based
conditionsUsed: Female gonad
readout: fold change (FC)

compound	readout	recordedValue
CCCCCC(O)CCC1N(CCCCCCC(=O)O)C(=O)CS1(=O)=O (mixture of isomers)	fold change (FC)	5

a. CCCCCC(O)CCCC(CCCCCCC(=O)O)C(C)=O (stereo not given)
b. CCCCC[C@H](O)/C=C/[C@H]1[C@H](O)CC(=O)[C@@H]1CCCCCCC(=O)O
**Q:** Given a and b , report the one with the higher recorded fold change (FC). Identify your selection by its label.
**A:** b
(b: 54, a: 2)

a. CCCCCC(O)CCC1CCC(=O)N1CCCCCCC(=O)O (mixture of isomers)
b. CCCCCC(O)CCCC(CCCCCCC(=O)O)S(C)(=O)=O (stereo not given)
**Q:** Could you tell me which of these two has the smaller fold change (FC) figure? First: a Second: b Pick one; state its label.
**A:** a
(a: 0.9, b: 14)

###

Species on record: Mus musculus
protocolSummary: Binding affinity to prostaglandin receptor in Charles River CD-1 mouse ovary assessed as increase in cAMP accumulation using [8-14C]adenine at 25 ug/ml after 30 mins relative to control
Format: tissue-based
conditionsUsed: Female gonad
readout: fold change (FC)

# annotated cases, reported fold change (FC) shown
compound	fold change (FC)
CCCCCCCCc1c[nH]c(=O)n1CCCCCCC(=O)O	5
CCCCCCCCC1CCC(=O)N1CCCCCCC(=O)O (racemic)	8

P. CCCCCC(O)CCCC(CCCCCCC(=O)O)C(C)=O (stereo unspecified)
Q. CCCCCC(O)CCC1N(CCCCCCC(=O)O)C(=O)CS1(=O)=O (mixture of isomers)
R. CCCCCC(O)CCC1CCC(=O)N1CCCCCCC(=O)O (mixture of isomers)
S. CCCCCCCCC1C(=O)NC(=O)N1CCCCCCC(=O)O (racemic)
**Q:** List by increasing fold change (FC). Please list the labels in the order you were asked to rank them.
**A:** S, R, P, Q

###

protocolSummary: Retardation factor, Rf of the compound
Format: physicochemical
readout: Rf

molecule	Rf
CCCCCCCCC1CCC(=O)N1CCCCCCC(=O)O (racemic)	0.25

1. O=C(O)CCCCCCN1C(=O)CS(=O)(=O)C1CCC(O)COc1ccc(F)cc1 (mixture of isomers)
2. CCCCCC(O)CCC1N(CCCCCCC(=O)O)C(=O)CS1(=O)=O (mixture of isomers)
**Q:** Lab note: record which item had the higher Rf, 1 or 2 . Please identify the chosen entry by its label.
**A:** 2
(2: 0.24, 1: 0.13)
